Tested on: PC-3
ASSAY_PROCEDURE: Antiproliferative activity against human PC-3 cells assessed as reduction in cell viability after 48 hrs by MTT assay
Format: functional, cell-based
EXPERIMENTAL_SETUP: PC-3, 48 h
ENDPOINT_NAME: IC50 (µM)

Consider the following illustrative entries.
| SMILES_STRUCTURE | IC50, µM |
| --- | --- |
| C=CCc1ccc(OCCCCCc2c3[n+](cc4c(OC)c(OC)ccc24)CCc2cc4c(cc2-3)OCO4)c(-c2ccc(OCCC)c(CC=C)c2)c1 | 1.43 |
| C=CCc1ccc(OCCCCCCCCc2c3[n+](cc4c(OC)c(OC)ccc24)CCc2cc4c(cc2-3)OCO4)c(-c2ccc(O)c(CC=C)c2)c1 | 2 |
| C=CCc1ccc(OCCCCCc2c3[n+](cc4c(OC)c(OC)ccc24)CCc2cc4c(cc2-3)OCO4)c(-c2ccc(O)c(CC=C)c2)c1 | 1.59 |

1 = C=CCc1ccc(OC)c(-c2ccc(O)c(CC=C)c2)c1
2 = C=CCc1ccc(O)c(-c2ccc(OCCCCCCCCc3c4[n+](cc5c(OC)c(OC)ccc35)CCc3cc5c(cc3-4)OCO5)c(CC=C)c2)c1
Input line: Lower value for measured IC50? Options: 1 , 2 Give the label under which the chosen entry appears.
Output line: 2
(2: 1.74 µM, 1: 24.8 µM)

====

Test system: PC-3
ASSAY_PROCEDURE: Antiproliferative activity against human PC-3 cells assessed as reduction in cell viability after 48 hrs by MTT assay
Format: functional, cell-based
EXPERIMENTAL_SETUP: PC-3, 48 h
pIC50: −log10 of the molar value.
ENDPOINT_NAME: pIC50

| SMILES_STRUCTURE | ENDPOINT_NAME | ENDPOINT_VALUE |
| --- | --- | --- |
| C=CCc1ccc(OCCCc2c3[n+](cc4c(OC)c(OC)ccc24)CCc2cc4c(cc2-3)OCO4)c(-c2ccc(O)c(CC=C)c2)c1 | pIC50 | 5.65 |
| C=CCc1ccc(O)c(-c2ccc(OCCC)c(CC=C)c2)c1 | pIC50 | 4.68 |
| C=CCc1ccc(OCCC)c(-c2ccc(O)c(CC=C)c2)c1 | pIC50 | 4.77 |

I = C=CCc1ccc(O)c(-c2ccc(OC)c(CC=C)c2)c1
II = C=CCc1ccc(OCCC)c(-c2ccc(OCCCCCc3c4[n+](cc5c(OC)c(OC)ccc35)CCc3cc5c(cc3-4)OCO5)c(CC=C)c2)c1
Input line: Kindly compare I with II and tell me which has the lower pIC50 figure. Mark your selection by writing its label.
Output line: I
